Test: Oral bioavailability in monkey at 3 mg/kg administered as single dose after 24 hrs by liquid chromatography-mass spectroscopy
Assay type: ADME, organism-based, Macaca mulatta
Details: rhesus monkey, in vivo
Attribute measured: bioavailability (%)
# value in %; strip the unit string

Field bioavailability (entry CN1CCN(c2cccc3nc(CN(C)[C@H]4CCCc5cccnc54)c(CO)n23)CC1 ) reads 17

* * *

Test: Volume of distribution at steady state in monkey at 1 mg/kg, iv administered as single dose after 24 hrs by liquid chromatography-mass spectroscopy
Assay type: ADME, organism-based, Macaca mulatta
Set-up: dose 1 mg/kg, route intravenous
Conditions: rhesus monkey, in vivo, read-out: Vdss
Attribute measured: Vd (L/kg)
Enter your answer as a number in L/kg; do not include the unit.

Memo: CN1CCN(c2cccc3nc(CN(C)[C@H]4CCCc5cccnc54)c(CO)n23)CC1 , reported Vd: 5.9
